- Measured on: T1, recombinant human IL-6 (human, UniProt P05231 30-212)
- T1 construct: Bought protein
- Method notes: SPR Biacore, supernatant Ab on Protein A chip, IL-6 analyte, 25 C
Measured attribute: kon (M⁻¹ s⁻¹)
Quick note: give the figure in M⁻¹ s⁻¹, leave out the unit.

Task: Specify kon for anti-IL-6 antibody, light chain N52S (heavy chain WT) (antibody, V domains shown, See note of m2; also called WT / N52S) VH: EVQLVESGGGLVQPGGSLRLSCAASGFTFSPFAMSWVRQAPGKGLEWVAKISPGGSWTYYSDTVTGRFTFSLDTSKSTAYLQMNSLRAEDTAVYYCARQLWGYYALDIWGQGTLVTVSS VL: DIQLTQSPSSLSASVGDRVTITCSASISVSYMYWYQQKPGKAPKLLIYDMSSLASGVPSRFSGSGSGTDFTLTISSLQPEDFATYYCMQWSGYPYTFGQGTKVEIK and stop.
Output: 430000

Task: Let me know recorded kon for anti-IL-6 antibody, light chain S55L (heavy chain WT) (antibody, V domains shown, See note of m2; also called WT / S55L) VH: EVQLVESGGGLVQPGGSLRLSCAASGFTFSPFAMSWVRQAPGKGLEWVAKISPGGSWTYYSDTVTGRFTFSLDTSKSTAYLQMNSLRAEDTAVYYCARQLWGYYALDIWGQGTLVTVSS VL: DIQLTQSPSSLSASVGDRVTITCSASISVSYMYWYQQKPGKAPKLLIYDMSNLALGVPSRFSGSGSGTDFTLTISSLQPEDFATYYCMQWSGYPYTFGQGTKVEIK , thanks.
Output: 668000

Task: Specify measured kon for anti-IL-6 antibody, light chain S51K (heavy chain WT) (antibody, V domains shown, See note of m2; also called WT / S51K) VH: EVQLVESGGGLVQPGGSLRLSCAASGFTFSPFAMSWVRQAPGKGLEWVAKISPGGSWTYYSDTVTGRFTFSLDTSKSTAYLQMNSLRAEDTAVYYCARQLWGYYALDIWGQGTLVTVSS VL: DIQLTQSPSSLSASVGDRVTITCSASISVSYMYWYQQKPGKAPKLLIYDMKNLASGVPSRFSGSGSGTDFTLTISSLQPEDFATYYCMQWSGYPYTFGQGTKVEIK .
Output: 396000

Task: Please report the measured kon for anti-IL-6 antibody, light chain Q89S (heavy chain WT) (antibody, V domains shown, See note of m2; also called WT / Q89S) VH: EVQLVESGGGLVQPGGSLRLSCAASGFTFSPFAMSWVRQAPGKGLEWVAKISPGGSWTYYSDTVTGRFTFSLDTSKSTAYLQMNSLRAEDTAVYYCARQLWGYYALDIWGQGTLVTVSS VL: DIQLTQSPSSLSASVGDRVTITCSASISVSYMYWYQQKPGKAPKLLIYDMSNLASGVPSRFSGSGSGTDFTLTISSLQPEDFATYYCMSWSGYPYTFGQGTKVEIK
Output: 362000

Task: Supply measured kon of anti-IL-6 antibody, light chain Y95G (heavy chain WT) (antibody, V domains shown, See note of m2; also called WT / Y95G) VH: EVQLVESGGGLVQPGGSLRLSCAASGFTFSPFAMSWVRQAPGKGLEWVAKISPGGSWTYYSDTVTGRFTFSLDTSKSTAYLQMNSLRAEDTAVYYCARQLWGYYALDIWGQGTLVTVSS VL: DIQLTQSPSSLSASVGDRVTITCSASISVSYMYWYQQKPGKAPKLLIYDMSNLASGVPSRFSGSGSGTDFTLTISSLQPEDFATYYCMQWSGYPGTFGQGTKVEIK in your reply.
Output: 882000
